- testSystem: T1, cynomolgus monkey BCMA (cynomolgus monkey, UniProt A0A2K5UD97 1-53)
- T1 construct: Soluble analyte in SPR; construct not described; also called cyBCMA; Cyno BCMA
- T1 sequence (A0A2K5UD97 entry or part of it): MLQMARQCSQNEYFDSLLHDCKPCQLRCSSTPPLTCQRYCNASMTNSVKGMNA
- procedureSummary: SPR, IgG immobilised, 37 C
Catalogue of kon values
Give just the numeric value; M⁻¹ s⁻¹ need not be written.

These solved cases illustrate the format of a correct answer.
{"columns": ["binder", "kon (M⁻¹ s⁻¹)"],
 "data": [
  ["L3.PY/L3.KY/P6E01 (antibody, V domains shown, IgG) VH: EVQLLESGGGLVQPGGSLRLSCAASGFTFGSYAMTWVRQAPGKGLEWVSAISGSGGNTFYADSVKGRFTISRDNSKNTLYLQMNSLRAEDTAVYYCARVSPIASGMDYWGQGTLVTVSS VL: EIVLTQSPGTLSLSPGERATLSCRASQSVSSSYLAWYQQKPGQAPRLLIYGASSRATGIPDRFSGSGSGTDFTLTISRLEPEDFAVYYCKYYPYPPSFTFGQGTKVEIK", "2.27e+06"],
  ["L3.PY/L1.PS/P6E01 (antibody, V domains shown, IgG) VH: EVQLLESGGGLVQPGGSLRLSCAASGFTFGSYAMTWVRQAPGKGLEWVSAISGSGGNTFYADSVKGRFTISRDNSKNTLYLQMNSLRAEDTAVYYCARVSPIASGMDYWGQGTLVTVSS VL: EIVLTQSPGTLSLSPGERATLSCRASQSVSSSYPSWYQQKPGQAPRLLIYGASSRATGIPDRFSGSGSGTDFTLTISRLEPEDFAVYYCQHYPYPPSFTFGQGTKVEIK", "2.17e+06"]
]}

Continue with the binder presented below.
Q. Retrieve kon measured for L3.PY/L1.AH/H3.AE (antibody, V domains shown, IgG) VH: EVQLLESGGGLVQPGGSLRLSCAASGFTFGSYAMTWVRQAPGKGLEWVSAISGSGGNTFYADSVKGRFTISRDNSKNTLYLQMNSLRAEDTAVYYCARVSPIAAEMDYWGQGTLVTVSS VL: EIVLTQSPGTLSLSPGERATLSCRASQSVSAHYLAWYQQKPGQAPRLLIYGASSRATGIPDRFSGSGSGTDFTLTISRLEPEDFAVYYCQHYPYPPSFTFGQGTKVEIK and print it.
A. 2.25e+06
